System: sonic hedgehog pathway
Assay: Human hedgehog reporter assay Daoy-GliLuc (DGL)
Format: cell-based
Conditions: Daoy human medulloblastoma cells, gli-luciferase reporter; read-out: Daoy Avg. EC50
From the text: Mouse (TM3: mouse Leydig cells; S12: mouse embryonic mesenchymal cells) and human (Daoy: human medulloblastoma cell; HepM: human embryonic palatal mesenchymal cell) cell lines are used to screen small molecules for their ability to modulate the activity of the sonic hedgehog pathway (Table 1, Table 2, and Table 3). […]
Counter-ions that a name gives are not always drawn.
In this section, each of the compounds is paired with its reported EC50.

## Task Which EC50 value is on record for CNC1CCC(N(Cc2cc(-c3ccc(C(=O)C(F)(F)F)cc3)ccc2OC)C(=O)c2sc3c(F)ccc(F)c3c2Cl)CC1 (stereo not drawn) ?
## Result < 50 nM

## Task Which EC50 value is on record for CNC1CCC(N(Cc2cc(-c3cnccn3)ccc2OC)C(=O)c2sc3ccccc3c2Cl)CC1 (stereo not drawn) [Compound 330 (R22), bis(trifluoroacetate)] ?
## Result < 50 nM

## Task Which EC50 value is on record for CNC1CCC(N(Cc2cc(-c3ccc(CCl)cc3)ccc2OC)C(=O)c2sc3ccccc3c2Cl)CC1 (stereo not drawn) [Compound 340, hydrochloride] ?
## Result < 50 nM
